# SYSTEM UNDER TEST: T1, human IL-12 (human, UniProt P29459 23-219; P29460 23-328)
# T1 construct: recombinant human IL-12 heterodimer (p35/p40, disulfide-linked); also called hIL-12; rhIL-12
# T1 sequence (looked up) 1: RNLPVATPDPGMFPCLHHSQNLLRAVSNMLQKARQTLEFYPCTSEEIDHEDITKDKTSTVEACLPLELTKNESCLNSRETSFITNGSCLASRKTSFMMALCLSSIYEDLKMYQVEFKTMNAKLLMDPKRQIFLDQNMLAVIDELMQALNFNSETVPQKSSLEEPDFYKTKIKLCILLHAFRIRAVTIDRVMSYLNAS
# T1 sequence (looked up) 2: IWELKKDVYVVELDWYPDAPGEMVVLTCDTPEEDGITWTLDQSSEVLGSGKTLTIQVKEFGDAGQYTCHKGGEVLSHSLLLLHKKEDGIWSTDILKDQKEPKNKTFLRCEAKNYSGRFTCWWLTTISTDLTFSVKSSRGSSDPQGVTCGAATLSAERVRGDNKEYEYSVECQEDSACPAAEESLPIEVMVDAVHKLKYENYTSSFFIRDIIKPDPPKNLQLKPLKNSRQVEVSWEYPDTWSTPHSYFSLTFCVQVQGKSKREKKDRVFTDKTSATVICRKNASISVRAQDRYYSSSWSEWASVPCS
# PROTOCOL TEXT: SPR (BIAcore), IL-12 chip
MEASURED QUANTITY: koff (s⁻¹)
Output spec: scalar in s⁻¹, unitless text.

Here is how some binders turned out for koff.
BINDER	U	MEAS VALUE
170-1 (scFv, V domains shown, scFv) VH: QVQLVQSGGGVVQPGRSLRLSCAASGFTFSSYGMHWVRQAPGKGLEWVAFIRYDGSNKYYADSVKGRFTISRDNSKNTLYLQMKSLRAEDTAVYYCTTSGSYDYWGQGTMVTVSS VL: SYVLTQPPSVSGTPGQRVTISCSGGRSNIGSNTVKWYQQLPGTAPKLLIYGNDQRPSGVPDRFSGSKSGTSASLAITGVQAEDEADYYCQSYDRGFTGFKVFGTGTKVTVL	s⁻¹	0.00235
A3 (scFv, V domains shown, scFv) VH: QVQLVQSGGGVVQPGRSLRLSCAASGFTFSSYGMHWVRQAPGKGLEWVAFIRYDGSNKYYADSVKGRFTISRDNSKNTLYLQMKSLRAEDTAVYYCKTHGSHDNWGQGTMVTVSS VL: SYVLTQPPSVSGTPGQRVTISCSGGRSNIGSNTVKWYQQLPGTAPKLLIYGNDQRPSGVPDRFSGSKSGTSASLAITGVQAEDEADYYCQSYDRGYPRNILFGTGTKVTVL	s⁻¹	0.00251

Now, please, on to the next binder.
Q: Kindly indicate its recorded koff. Item: 70-2 (scFv, V domains shown, scFv) VH: QVQLVQSGGGVVQPGRSLRLSCAASGFTFSSYGMHWVRQAPGKGLEWVAFIRYDGSNKYYADSVKGRFTISRDNSKNTLYLQMKSLRAEDTAVYYCTTHGSYDYWGQGTMVTVSS VL: SYVLTQPPSVSGTPGQRVTISCSGGRSNIGSNTVKWYQQLPGTAPKLLIYGNDQRPSGVPDRFSGSKSGTSASLAITGVQAEDEADYYCQSYDSSLRGSRVFGTGTKVTVL
A: 0.033
